Origin of measurements: paper PMC6832134

Target: HIV-1 integrase (Human immunodeficiency virus type 1 group M subtype B)
Construct: 250 nM of recombinant HIV-1 integrase; made in house; host or cells: E. coli RosettaII
Experiment: Electrochemiluminescent integrase strand transfer assay (BioVeris), high-throughput screen
Assay type: biochemical
Conditions: single dose 10 µM; read-out: inhibition of IN ST activity
Endpoint Name: inhibition at 10 µM (%)
Report only the number, with the unit % understood.

INSERT INTO measurements (mol, quantitative_result) VALUES
  ('O=C(O)CSCC(=O)c1ccccc1', 99.5),
  ('O=C(Nc1ccc(Sc2ccc(/N=N/c3c(O)c(S(=O)(=O)O)cc4cc(S(=O)(=O)O)ccc34)cc2)cc1)c1ccc(/N=N/c2c(O)ccc3c(S(=O)(=O)O)cc(S(=O)(=O)O)cc23)cc1', 62.8),
  ('O=S(=O)(O)c1cc(/N=N/c2cc(S(=O)(=O)O)c3ccccc3c2O)ccc1/C=C/c1ccc(/N=N/c2cc(S(=O)(=O)O)c3ccccc3c2O)cc1S(=O)(=O)O', 77.8);

Entry `O=S(=O)(O)c1cc(/N=N/c2cc(S(=O)(=O)O)c3cccnc3c2O)ccc1/C=C/c1ccc(/N=N/c2cc(S(=O)(=O)O)c3cccnc3c2O)cc1S(=O)(=O)O` — recorded inhibition at 10 µM = 67.2

// `O=C(O)c1c(Br)c(Br)c(Br)c(Br)c1C1c2ccc(O)cc2Oc2cc(O)ccc21` : inhibition at 10 µM value = 98.5

====

Molecular target: HIV-1 IN (WT) (Human immunodeficiency virus type 1 group M subtype B, UniProt P12497)
Construct: 250 nM of recombinant HIV-1 integrase; made in house; host or cells: E. coli RosettaII
Assay: Gel-based IN strand transfer assay, WT enzyme
Type: biochemical
Details: precleaved substrate (bypassing the 3'-P step), data not shown; read-out: IC50, ST inhibition with precleaved substrate
Endpoint Name: pIC50
Reminder that pIC50 means the negative base-10 logarithm of the concentration expressed in mol/L.

// pIC50 lookup, molecule = `O=S(=O)(O)c1cc(/N=N/c2cc(S(=O)(=O)O)c3ccccc3c2O)ccc1/C=C/c1ccc(/N=N/c2cc(S(=O)(=O)O)c3ccccc3c2O)cc1S(=O)(=O)O` , result: 6.64

====

Assay: in vitro
Settings: human
Endpoint Name: CC50

INSERT INTO measurements (mol, result) VALUES
  ('CCOc1ccc(/N=N/c2ccc(/C=C/c3ccc(/N=N/c4ccc(OCC)cc4)cc3S(=O)(=O)O)c(S(=O)(=O)O)c2)cc1', '> 100 µM'),
  ('Nc1ccc(/N=N/c2ccc(/C=C/c3ccc(/N=N/c4ccc(N)c5ccc(S(=O)(=O)O)cc45)cc3S(=O)(=O)O)c(S(=O)(=O)O)c2)c2cc(S(=O)(=O)O)ccc12', '> 100 µM');

Given item `O=S(=O)(O)c1cc(/N=N/c2cc(S(=O)(=O)O)c3ccccc3c2O)ccc1/C=C/c1ccc(/N=N/c2cc(S(=O)(=O)O)c3ccccc3c2O)cc1S(=O)(=O)O` , the value recorded as its CC50 is 59 µM

====

Entries annotated with measured pIC50
Target: HIV-1 IN (WT) (Human immunodeficiency virus type 1 group M subtype B, UniProt P12497)
Construct: 250 nM of recombinant HIV-1 integrase; made in house; host or cells: E. coli RosettaII
Experiment: Gel-based IN strand transfer assay, WT enzyme
Assay type: biochemical
Settings: gel-based assay, coupled ST, at least three independent experiments; read-out: In Vitro IC50 +/−SD, ST
pIC50 is defined as minus the log10 of a concentration measured in mol/L.

INSERT INTO measurements (mol, quantitative_result) VALUES
  ('Nc1ccc(/N=N/c2ccc(/C=C/c3ccc(/N=N/c4ccc(N)c5ccc(S(=O)(=O)O)cc45)cc3S(=O)(=O)O)c(S(=O)(=O)O)c2)c2cc(S(=O)(=O)O)ccc12', 6.30);

Now consider a different molecule.
Field pIC50 (entry `O=S(=O)(O)c1cc(/N=N/c2cc(S(=O)(=O)O)c3ccccc3c2O)ccc1/C=C/c1ccc(/N=N/c2cc(S(=O)(=O)O)c3ccccc3c2O)cc1S(=O)(=O)O` ) reads 6.74
